Each entry below carries its reported koff.
Molecular target: T1, human CD3ed (human, UniProt P07766 23-126; P04234 22-105, limits assumed)
T1 construct: The construct injected as 'human CD3ed' in the Biacore assay is not defined; also called human CD3 epsilon/delta heterodimer
T1 sequence (P07766 23-126 limits assumed, chain 1 of 2): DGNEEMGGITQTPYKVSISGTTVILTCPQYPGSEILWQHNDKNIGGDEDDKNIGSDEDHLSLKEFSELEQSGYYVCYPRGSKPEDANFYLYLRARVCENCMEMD
T1 sequence (P04234 22-105 limits assumed, chain 2 of 2): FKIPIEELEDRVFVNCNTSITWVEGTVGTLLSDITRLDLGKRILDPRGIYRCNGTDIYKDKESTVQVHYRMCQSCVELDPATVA
Experiment: SPR Biacore T200, IgG captured on protein A, antigen as analyte, 25 C;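 further: antigens flowed over a CM3 chip for 120 s association, KD derived from ka and kd, running buffer (ACES, NaCl, Tween20, pH 7.4) served as blank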
The figure you give is taken to be in s⁻¹; do not add the unit.

Binder: dBBDu_189 / dBBDu_L112 (antibody, human IgG1, V domains shown, Tested as IgG (human IgG1 constant region, kappa light chain); also called dBBDu189/L112) VH: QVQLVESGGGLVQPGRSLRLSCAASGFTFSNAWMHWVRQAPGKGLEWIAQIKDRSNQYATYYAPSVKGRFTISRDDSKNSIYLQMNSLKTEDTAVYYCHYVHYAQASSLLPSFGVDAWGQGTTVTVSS VL: DIVMTQSPLSLPVTPGEPASISCTSDQELVHMNRHTYLHWYQQKPGQAPRLLIYKVYNRFPGVPDRFSGSGSGTDFTLKISRVEAEDVGVYYCAQGTSVPFTFGQGTKLEIK
Observed Property: koff
Recorded Measurement: 0.01

Binder: dBBDu_189 / dBBDu_L126 (antibody, human IgG1, V domains shown, Tested as IgG (human IgG1 constant region, kappa light chain); also called dBBDu189/L126) VH: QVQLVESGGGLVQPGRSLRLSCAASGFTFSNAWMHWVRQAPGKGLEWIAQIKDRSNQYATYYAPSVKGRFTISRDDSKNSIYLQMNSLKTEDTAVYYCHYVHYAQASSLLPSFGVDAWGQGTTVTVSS VL: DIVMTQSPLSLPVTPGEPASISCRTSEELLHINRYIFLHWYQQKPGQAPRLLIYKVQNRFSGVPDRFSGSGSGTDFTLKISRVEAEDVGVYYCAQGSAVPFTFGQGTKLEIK
Observed Property: koff
Recorded Measurement: 0.0281

// next entry
// fetch koff given entry dBBDu_183 / dBBDu_L067 (antibody, human IgG1, V domains shown, Tested as IgG (human IgG1 constant region, kappa light chain); also called dBBDu183/L067) VH: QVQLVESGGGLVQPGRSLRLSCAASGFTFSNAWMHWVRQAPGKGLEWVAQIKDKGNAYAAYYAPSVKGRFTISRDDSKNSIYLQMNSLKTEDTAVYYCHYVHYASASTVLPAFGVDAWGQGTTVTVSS VL: DIVMTQSPLSLPVTPGEPASISCQSSESLVHVNRHTYLHWYQQKPGQAPRLLIYKVYNRFPGVPDRFSGSGSGTDFTLKISRVEAEDVGVYYCAQGTSVPFTFGQGTKLEIK
0.0193
